Overview of recorded microsomal CLint at 1 µM for various compounds
Assay: Metabolic stability in NMRI mouse liver microsomes assessed as intrinsic clearance at 1 uM measured per mg protein upto 40 mins
Format: ADME, Microsome
Conditions: read-out: CLH

>  <compound>
Cc1ccc(OC2CC3CCC(C2)N3C(=O)C(=O)Nc2ccc3[nH]ccc3c2)cc1 (configuration not stated)

>  <microsomal CLint at 1 µM [µL/min/mg]>
40

$$$$
>  <compound>
Cc1ccc(CN2CCN(C(=O)C(=O)Nc3ccc4c(c3)c(F)cn4C)CC2)cc1

>  <microsomal CLint at 1 µM [µL/min/mg]>
214

$$$$
>  <compound>
Cc1ccc(Oc2ccc(C(=O)C(=O)Nc3ccc4c(ccn4C)c3)cn2)cc1

>  <microsomal CLint at 1 µM [µL/min/mg]>
33

$$$$
>  <compound>
Cc1ccc(CN2CCN(C(=O)C(=O)Nc3cnc4c(ccn4C)c3)CC2)cc1

>  <microsomal CLint at 1 µM [µL/min/mg]>
46

$$$$
>  <compound>
Cc1ccc(CN2CCN(C(=O)C(=O)Nc3ccc4c(c3)c(C)cn4C)CC2)cc1

>  <microsomal CLint at 1 µM [µL/min/mg]>
198

$$$$
>  <compound>
Cc1ccc(CN2CCN(C(=O)C(=O)Nc3cnc4c(c3)c(F)cn4C)CC2)cc1

>  <microsomal CLint at 1 µM [µL/min/mg]>
39

$$$$
>  <compound>
Cc1ccc(Oc2ccc(C(=O)C(=O)Nc3ccc4c(ccn4C)c3)cc2)cc1

>  <microsomal CLint at 1 µM [µL/min/mg]>
46

$$$$
